Tested on: recombinant catalytic a domain of human PDI A1 (PDIa) (Homo sapiens)
Construct: made in house; host or cells: Escherichia coli BL21-Gold (DE3)
Assay name: Insulin aggregation assay (PDIa reductase activity)
Assay type: biochemical
Reported conditions: Table 5
Measured quantity: Insulin Assay (either active or inactive)

O=c1c2ccccc2sn1Cc1ccc(Br)cc1 [LC-26] = not active
C[C@H](c1ccccc1)n1sc2ncccc2c1=O [LC-58] = Active
NC(=O)c1cccc(C(F)(F)F)c1SSc1c(C(N)=O)cccc1C(F)(F)F [LC-45] = not active
Cc1nc2sn(CN3CCN(C(=O)C4CC4)CC3)c(=O)c2c(C)c1C [LC-52] = Active
Cc1nc2s[nH]c(=O)c2c(C)c1C [LC-51] = Active

Input line: Which measured Insulin Assay (either active or inactive) belongs to CN1CCN(Cn2sc3ccccc3c2=O)CC1 [LC-2] , tested on recombinant catalytic a domain of human PDI A1 (PDIa) (Homo sapiens)?
Output line: Active

Input line: Now consider CC(C)(C)OC(=O)N1CCN(Cn2sc3ccccc3c2=O)CC1 [LC-10] and answer again.
Output line: Active

Input line: Same question for O=C(C1CC1)N1CCN(Cn2sc3ccc(Cl)cc3c2=O)CC1 [LC-15] please.
Output line: Active

Input line: Subsequent entry: O=c1[nH]sc2c(F)cccc12 [LC-40]
Output line: Active

Input line: Also O=c1c2ccccc2sn1CN1CCSCC1 [LC-3] ?
Output line: Active

====

Tested on: human catalytic PDI A1 a domain (PDIa) (Homo sapiens, UniProt P07237)
Construct: made in house; host or cells: Escherichia coli BL21-Gold (DE3)
Assay name: Isothermal titration calorimetry (ITC) binding to PDIa
Reported conditions: PDIa, Table 5; read-out: ITC Assay KD
pKd: −log10 of the molar value.
Decision: pKd compared against 7; not below it gives yes, below it gives no.

// known answers, use as guide
Cc1ccc(-n2sc3ccccc3c2=O)c(Br)c1 = yes
O=c1c2ccccc2sn1CN1CCN(Cc2ccccc2)CC1 = no
O=c1c2ccccc2sn1CN1CCOCC1 = no

Input line: Check the entry `C[C@H](c1ccccc1)n1sc2ccccc2c1=O` : does pKd equal or exceed 7?
Output line: no

====

Tested on: recombinant catalytic a domain of human PDI A1 (PDIa) (Homo sapiens, UniProt P07237)
Construct: made in house; host or cells: Escherichia coli BL21-Gold (DE3)
Sequence (P07237 with tags, fused parts or gaps): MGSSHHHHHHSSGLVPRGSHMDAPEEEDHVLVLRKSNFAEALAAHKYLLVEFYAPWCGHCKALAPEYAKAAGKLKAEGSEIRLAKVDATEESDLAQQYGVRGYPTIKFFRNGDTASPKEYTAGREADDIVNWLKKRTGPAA
Assay name: Insulin aggregation assay (PDIa reductase activity)
Format: biochemical
Reported conditions: Table 5
Measured quantity: Insulin Assay (either active or inactive)

Solved entries:
S=c1ssc2ccccc12 [LC-49] = not active
O=C(Nc1cccc(F)c1)c1ccccc1S [LC-30] = not active
O=C(C1CC1)N1CCN(Cn2sc3ccccc3c2=O)CC1 [LOC14] = Active
O=c1c2ccccc2sn1Cn1sc2ccccc2c1=O [LC-17] = Active
O=C(Nc1ccc(Oc2ccccc2)cc1)c1ccccc1S [LC-33] = not active

Input line: I am curious: what Insulin Assay (either active or inactive) value has been reported for O=C(c1ccccc1)n1sc2ccccc2c1=O [LC-11] ?
Output line: not active

====

Items are presented alongside their recorded Kd.
Tested on: human catalytic PDI A1 a domain (PDIa) (Homo sapiens, UniProt P07237)
Construct: made in house; host or cells: Escherichia coli BL21-Gold (DE3)
Assay name: Isothermal titration calorimetry (ITC) binding to PDIa
Reported conditions: PDIa, Table 4; read-out: ITC KD
The response must be a number in nM with no trailing unit.

The following compounds have reported results that may help.
CC(C)(C)OC(=O)NC1CCN(Cn2sc3ccccc3c2=O)CC1 = 94.3
O=C(C1CC1)N1CCN(Cn2sc3ccc(Cl)cc3c2=O)CC1 = 114
O=c1c2ccccc2sn1CN1CCC(CO)CC1 = 265
O=c1[nH]sc2ccccc12 = 142
CN1CCN(Cn2sc3ccccc3c2=O)CC1 = 134

Input line: Fill in the blank: the reported Kd of `CC(=O)c1ccc(N2CCN(Cn3sc4ccccc4c3=O)CC2)cc1` is ____.
Output line: 190

Input line: Let us now turn to `O=c1c2ccccc2sn1CN1CCN(c2ncccn2)CC1`
Output line: 140

Input line: Ok, now `O=c1c2ccccc2sn1CN1CCSCC1`
Output line: 91.7

Input line: Check `O=c1c2ccccc2sn1CN1CCC(O)CC1` too.
Output line: 216

Input line: And the next one, `O=c1c2ccccc2sn1CN1CCCCC1` ?
Output line: 107

Input line: Would you kindly repeat that for `CC(C)(C)OC(=O)N1CCN(Cn2sc3ccccc3c2=O)CC1` ?
Output line: 123
